Target: T1, wild type CD70-His-Avi (human, UniProt P32970 45-193)
T1 sequence (looked up): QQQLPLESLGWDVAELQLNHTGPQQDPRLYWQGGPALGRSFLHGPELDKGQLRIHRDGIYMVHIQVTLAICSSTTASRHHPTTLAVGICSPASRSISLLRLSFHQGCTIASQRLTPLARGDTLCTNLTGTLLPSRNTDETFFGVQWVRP
Assay: SPR
ENDPOINT NAME: Kd (nM)

See these solved cases before continuing.
So what's the measured Kd for this one? CD27-S83A (receptor, human, UniProt P26842 23-127, looked up, glycosylated) APKSCPERHYWAQGKLCCQMCEPGTFLVKDCDQHRKAAQCDPCIPGVSFSPDHHTRPHCEACRHCNSGLLVRNCTITANAECACRNGWQCRDKECTECDPLPNPS
254

So what's the measured Kd for this one? CD27-N95A (receptor, human, UniProt P26842 23-127, looked up) APKSCPERHYWAQGKLCCQMCEPGTFLVKDCDQHRKAAQCDPCIPGVSFSPDHHTRPHCESCRHCNSGLLVRACTITANAECACRNGWQCRDKECTECDPLPNPS
100

(A) CD27-K115A (receptor, human, UniProt P26842 23-127, looked up, glycosylated) APKSCPERHYWAQGKLCCQMCEPGTFLVKDCDQHRKAAQCDPCIPGVSFSPDHHTRPHCESCRHCNSGLLVRNCTITANAECACRNGWQCRDAECTECDPLPNPS
(B) CD27-R30A (receptor, human, UniProt P26842 23-127, looked up, glycosylated) APKSCPEAHYWAQGKLCCQMCEPGTFLVKDCDQHRKAAQCDPCIPGVSFSPDHHTRPHCESCRHCNSGLLVRNCTITANAECACRNGWQCRDKECTECDPLPNPS
Parameter check: reported Kd is higher for which label, A or B ? Which one? Tell me its label.
B
(B: 351 nM, A: 102 nM)
